- experiment-summary: Pharmacokinetics and plasma concentration of Example 101 in Lewis rats after oral administration (CIA study)
- Assay type: in vivo, Lewis rat
- condition-notes: Lewis, rat, plasma, oral, 10 mg/kg, oral, day 20, 10 mg/kg, 12 h, per test subject; read-out: Plasma concentration
measurement-name: concentration at 12 h (ng/mL)
Dear colleague, please return just the value in ng/mL, with no unit written.

query: Supply concentration at 12 h value. Item: CNC(=O)c1[nH]c(C(=O)NC2CCC2)cc1O[C@@H](C)c1ccccc1 (stereo in doubt)
result: 258

====

- experiment-summary: Beagle dog PK study 1 of Example 101 (propylene glycol-based formulation, IV and PO), with clinical observations
- Format: in vivo
- condition-notes: beagle, dog, plasma, po, 5 mg/kg, dog PK study 1, oral, mean
measurement-name: AUC(0-t) (ng·h/mL)
Dear colleague, please return just the value in ng·h/mL, with no unit written.

query: Supply AUC(0-t) value. Item: CNC(=O)c1[nH]c(C(=O)NC2CCC2)cc1O[C@@H](C)c1ccccc1 (stereo in doubt) [Example 101]
result: 4150

====

- experiment-summary: Beagle dog PK study 1 of Example 101 (propylene glycol-based formulation, IV and PO), with clinical observations
- Format: in vivo
- condition-notes: beagle, dog, plasma, iv, 1 mg/kg, dog PK study 1, intravenous, Test Animal 1; read-out: MRTInf—obs
measurement-name: MRT inf (h)
Dear colleague, please return just the value in h, with no unit written.

query: Supply MRT inf value. Item: CNC(=O)c1[nH]c(C(=O)NC2CCC2)cc1O[C@@H](C)c1ccccc1 (stereo in doubt)
result: 1.54

====

- experiment-summary: Beagle dog PK study 2 of Example 101 (HPβCD based formulation, IV), with clinical observations
- Assay type: in vivo
- condition-notes: beagle, dog, plasma, iv, 1 mg/kg, dog PK study 2, IV 1 mg/kg, HPβCD, Test Animal 1; read-out: Vss—obs
measurement-name: Vd (L/kg)
Dear colleague, please return just the value in L/kg, with no unit written.

query: Supply Vd value. Item: CNC(=O)c1[nH]c(C(=O)NC2CCC2)cc1O[C@@H](C)c1ccccc1 (stereo in doubt)
result: 0.838

====

- experiment-summary: Beagle dog PK study 2 of Example 101 (HPβCD based formulation, IV), with clinical observations
- Assay type: in vivo
- condition-notes: beagle, dog, plasma, iv, 1 mg/kg, dog PK study 2, IV 1 mg/kg, HPβCD, Test Animal 2; read-out: MRTInf—obs
- Procedure: The purpose of this study was to examine the pharmacokinetics of Example 101 in beagle dogs. […] An oral PK study was also undertaken in Lewis rats—see Experimental Method C. Body weight was recoded prior to dosing, and detailed clinical observations were made prior to dosing and throughout the study, as needed. 78.646 mL of HPβCD (20% solution w/v) was then added with vortex and sonication. […]
measurement-name: MRT inf (min)
Dear colleague, please return just the value in min, with no unit written.

query: Supply MRT inf value. Item: CNC(=O)c1[nH]c(C(=O)NC2CCC2)cc1O[C@@H](C)c1ccccc1 (stereo in doubt)
result: 45.1

====

- experiment-summary: Beagle dog PK study 1 of Example 101 (propylene glycol-based formulation, IV and PO), with clinical observations
- Format: in vivo
- condition-notes: beagle, dog, plasma, iv, 1 mg/kg, dog PK study 1, intravenous, mean
measurement-name: half-life (h)
Dear colleague, please return just the value in h, with no unit written.

query: Supply half-life value. Item: CNC(=O)c1[nH]c(C(=O)NC2CCC2)cc1O[C@@H](C)c1ccccc1 (stereo in doubt)
result: 1.13
